# target_entity: T1, TyrR (TyrRA153) (Serratia plymuthica A153, UniProt A0A318P557 1-523)
# T1 sequence: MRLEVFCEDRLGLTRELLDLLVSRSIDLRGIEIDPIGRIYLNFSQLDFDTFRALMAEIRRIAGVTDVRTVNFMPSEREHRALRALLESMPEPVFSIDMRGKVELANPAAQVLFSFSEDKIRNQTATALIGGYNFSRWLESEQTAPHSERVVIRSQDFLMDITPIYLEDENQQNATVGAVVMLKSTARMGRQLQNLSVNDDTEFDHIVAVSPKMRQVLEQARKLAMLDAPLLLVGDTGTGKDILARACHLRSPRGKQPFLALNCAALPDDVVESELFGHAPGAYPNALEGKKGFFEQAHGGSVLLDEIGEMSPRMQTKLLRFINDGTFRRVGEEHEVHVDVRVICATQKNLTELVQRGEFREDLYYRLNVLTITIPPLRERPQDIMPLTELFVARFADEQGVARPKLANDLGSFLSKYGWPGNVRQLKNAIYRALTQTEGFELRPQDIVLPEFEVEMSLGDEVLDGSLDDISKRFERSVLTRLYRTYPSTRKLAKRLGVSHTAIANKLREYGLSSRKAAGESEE
# test_protocol: ITC; no amino acid or ATP; 10 mM MgCl2; ITC: 5 mM Tris, 5 mM PIPES, 5 mM MES, 150 mM NaCl, 10 mM MgCl2, 10 mM beta-mercaptoethanol, 10% glycerol, pH 7.5, 10 C; 100 uM DNA injected into 5-20 uM TyrR
# applied_conditions: protein: recombinant; tags: N-terminal His6; chain copies: 2; blunt
measurement_name: Kd (nM)
Give bare numbers, in nM.

**Query** I have this binder here, Pipdc-wt-ITC (wild-type TyrR box) (dsDNA) DNA 1: CCCCTGTAAAGGAGCCATTACATCAA DNA 2: TTGATGTAATGGCTCCTTTACAGGGG , and I need its recorded Kd.
**Result** 193
